Biological target: FPR1 (UniProt P21462)
Assay: fMLP-FPR1 mediated intracellular calcium signaling assay in FPR1-overexpressing 293T cells
Format: cell-based, human or mouse
Conditions: inhibition of fMLP-stimulated intracellular calcium change; hFPR1 or mFPR1 overexpressing 293T cells; 10 min pre-incubation; INDO-1 AM, FACS; read-out: IC50 (nM), potency in calcium signaling assay
// reported IC50 for each item listed

| compound | experimental.result |
| --- | --- |
| Cc1ccc(O)c(-c2onc3c2C(c2ccc(C(F)(F)F)cc2)N(C2CCOCC2)C3=O)c1 (racemic) | 1000 to 10000 nM |

Consider the additional compound presented here.
For the compound Cc1ccc(O)c(-c2noc3c2C(c2ccc(C(F)(F)F)cc2)N(C2CCOCC2)C3=O)c1 (racemic) , report IC50. 100 to 1000 nM
